molecular target: NS19-9; assay: Inhibition of NS19-9 binding by sugar chains (same test performed on NS19-9); conditions: read-out: 50% INHIBITION (μM) NS19-9
Let's look at some compounds and their measured IC50.
Quantity Name: IC50

* CC(=O)N[C@H]1[C@H]([C@H](O)[C@H](O)CO)OC(O)(C(=O)O)C[C@@H]1O (stereo partly shown) [NeuAc] | > 10000 µM
* CC(=O)N[C@H]1[C@H](O[C@H]2[C@@H](O)[C@@H](CO)O[C@@H](O[C@H]3[C@H](O)[C@@H](O)C(O)O[C@@H]3CO)[C@@H]2O)O[C@H](CO[C@]2(C(=O)O)C[C@H](O)[C@@H](NC(C)=O)[C@H]([C@H](O)[C@H](O)CO)O2)[C@@H](O)[C@@H]1O[C@@H]1O[C@H](CO)[C@H](O)[C@H](O[C@]2(C(=O)O)C[C@H](O)[C@@H](NC(C)=O)[C@H]([C@H](O)[C@H](O)CO)O2)[C@H]1O (stereo partly shown) | 3550 µM
* C[C@@H]1OC(O)[C@@H](O)[C@H](O)[C@@H]1O (stereo partly drawn) [L-Fucose] | 14000 µM
* CC(=O)N[C@H]1[C@H](O[C@H]2[C@@H](O)[C@@H](CO)O[C@@H](O[C@H]3[C@H](O)[C@@H](O)C(O)O[C@@H]3CO)[C@@H]2O)O[C@H](CO)[C@@H](O)[C@@H]1O[C@@H]1O[C@H](CO)[C@H](O)[C@H](O[C@]2(C(=O)O)C[C@H](O)[C@@H](NC(C)=O)[C@H]([C@H](O)[C@H](O)CO)O2)[C@H]1O (stereo partly shown) | 3550 µM

* * *

biological target: binding of the NKY13 to G-50I; test: Inhibition of the binding of NKY13 to G-50I by sugar chains; set-up: species or system mouse; settings: inhibition of binding of NKY13 to G-50I by the sugar chain
Let's look at some molecules and their measured IC50.
Quantity Name: IC50

• CC(=O)N[C@H]1[C@H]([C@H](O)[C@H](O)CO)OC(O)(C(=O)O)C[C@@H]1O (stereo partly drawn) = 9000 µM
• CC(=O)N[C@H]1[C@H](O[C@H]2[C@@H](O)[C@@H](CO)O[C@@H](O[C@H]3[C@H](O)[C@@H](O)C(O)O[C@@H]3CO)[C@@H]2O)O[C@H](CO)[C@@H](O[C@@H]2O[C@H](CO)[C@H](O)[C@H](O)[C@H]2O)[C@@H]1O[C@@H]1O[C@@H](C)[C@@H](O)[C@@H](O)[C@@H]1O (stereo partly drawn) = > 10000 µM
• CC(=O)N[C@H]1[C@H](O[C@H]2[C@@H](O)[C@@H](CO)O[C@@H](O[C@H]3[C@H](O)[C@@H](O)C(O)O[C@@H]3CO)[C@@H]2O)O[C@H](CO)[C@@H](O[C@@H]2O[C@@H](C)[C@@H](O)[C@@H](O)[C@@H]2O)[C@@H]1O[C@@H]1O[C@H](CO)[C@H](O)[C@H](O)[C@H]1O (stereo partly drawn) = > 10000 µM
• C[C@@H]1OC(O)[C@@H](O)[C@H](O)[C@@H]1O (stereo partly drawn) = > 10000 µM
• O=C(CO)N[C@H]1[C@H]([C@H](O)[C@H](O)CO)OC(O)(C(=O)O)C[C@@H]1O (stereo partly drawn) = 9000 µM
• CC(=O)N[C@H]1[C@H](O[C@H]2[C@@H](O)[C@@H](CO)O[C@@H](O[C@H]3[C@H](O)[C@@H](O)C(O)O[C@@H]3CO)[C@@H]2O)O[C@H](CO[C@]2(C(=O)O)C[C@H](O)[C@@H](NC(C)=O)[C@H]([C@H](O)[C@H](O)CO)O2)[C@@H](O)[C@@H]1O[C@@H]1O[C@H](CO)[C@H](O)[C@H](O[C@]2(C(=O)O)C[C@H](O)[C@@H](NC(C)=O)[C@H]([C@H](O)[C@H](O)CO)O2)[C@H]1O (stereo partly drawn) = 320 µM

* * *

Target: binding of the NKY13 to G-50I
Experiment: Inhibition of the binding of NKY13 to G-50I by sugar chains
Parameters: species or system mouse
Conditions: inhibition of binding of NKY13 to G-50I by the sugar chain
Procedure: Bovine serum albumin (1%) is added to wells of poly(vinyl chloride) on which, through the mediation of polylysine and glutaraldehyde, is immobilized mucin-type glycopeptide (G-50I) that is isolated from human intestinal cancer cells SW1116 or LS180. […] After washing the wells, the affinity of NKY13 is measured, taking as index the radioactivity of ^125 I combined with the well. […]
Quantity Name: IC50 (µM)

• CC(=O)N[C@H]1[C@H](O[C@H]2[C@@H](O)[C@@H](CO)O[C@@H](O[C@H]3[C@H](O)[C@@H](O)C(O)O[C@@H]3CO)[C@@H]2O)O[C@H](CO)[C@@H](O)[C@@H]1O[C@@H]1O[C@H](CO)[C@H](O)[C@H](O[C@]2(C(=O)O)C[C@H](O)[C@@H](NC(C)=O)[C@H]([C@H](O)[C@H](O)CO)O2)[C@H]1O (stereo partly drawn) = 320
• CC(=O)N[C@H]1[C@H](O[C@H]2[C@@H](O)[C@@H](CO)O[C@@H](O[C@H]3[C@H](O)[C@@H](O)C(O)O[C@@H]3CO)[C@@H]2O)O[C@H](CO)[C@@H](O[C@@H]2O[C@@H](C)[C@@H](O)[C@@H](O)[C@@H]2O)[C@@H]1O[C@@H]1O[C@H](CO)[C@H](O)[C@H](O[C@]2(C(=O)O)C[C@H](O)[C@@H](NC(C)=O)[C@H]([C@H](O)[C@H](O)CO)O2)[C@H]1O (stereo partly drawn) = 1.86

* * *

Let's look at some compounds and their measured IC50.
Biological target: binding of the NKY13 to G-50I
Experiment: Inhibition of the binding of NKY13 to G-50I by sugar chains
Parameters: species or system mouse
Conditions: inhibition of binding of NKY13 to G-50I by the sugar chain
Description: Bovine serum albumin (1%) is added to wells of poly(vinyl chloride) on which, through the mediation of polylysine and glutaraldehyde, is immobilized mucin-type glycopeptide (G-50I) that is isolated from human intestinal cancer cells SW1116 or LS180. […] After washing the wells, the affinity of NKY13 is measured, taking as index the radioactivity of ^125 I combined with the well. […]
Quantity Name: IC50

• CC(=O)N[C@H]1[C@H](O[C@H]2[C@@H](O)[C@@H](CO)O[C@@H](O[C@H]3[C@H](O)[C@@H](O)C(O)O[C@@H]3CO)[C@@H]2O)O[C@H](CO)[C@@H](O)[C@@H]1O[C@@H]1O[C@H](CO)[C@H](O)[C@H](O)[C@H]1O (some centres unmarked) = > 10000 µM
• CC(=O)N[C@H]1[C@H](O[C@H]2[C@@H](O)[C@@H](CO)O[C@@H](O[C@H]3[C@H](O)[C@@H](O)C(O)O[C@@H]3CO)[C@@H]2O)O[C@H](CO[C@]2(C(=O)O)C[C@H](O)[C@@H](NC(C)=O)[C@H]([C@H](O)[C@H](O)CO)O2)[C@@H](O)[C@@H]1O[C@@H]1O[C@H](CO)[C@H](O)[C@H](O)[C@H]1O (some centres unmarked) = > 10000 µM
